Measured values drawn from the supplement of paper PMC10127200 for this set.

system: OVCAR4; test: Euclidean distance of Cell Painting phenotypic profile (signed KS, 77 features) to DMSO centroid (dimensionless distance); 5 or 10 uM (library dependent); higher = stronger phenotypic change vs DMSO (phenoactivity); conditions: 48 h
Where a name gives a salt, the structure may show the parent alone.
quantity.kind: Euclidean distance

q: Report Euclidean distance for O=C(O)/C=C/c1ccc(O)c(O)c1 please.
a: 1.23

q: What would you report for OC[C@H]1O[C@@H](OCCc2ccc(O)cc2)[C@H](O)[C@@H](O)[C@@H]1O [Salidroside] ?
a: 1.5

q: What would you report for Cc1cc(F)c(Nc2ncnc3cc(OCc4ccccc4)ccc23)cc1O ?
a: 0.745

q: What would you report for O=C(NCc1ccncc1)C12CC3CC(C1)CC(c1ccc(Cl)cc1)(C3)C2 ?
a: 0.981

q: What would you report for CCCNc1nc(Nc2ccc(C#N)cc2)ncc1C#CCCCNC(=O)[C@H](C)N(C)C(=O)/C=C/CN(C)C ?
a: 5.67

q: What would you report for CC(C)(C)NC[C@H](O)c1ccc(O)c(CO)c1 [levalbuterol tartrate] ?
a: 0.907

q: What would you report for CC(C)(C)[C@H]1CC[C@H](CC2=C(O)C(=O)c3ccccc3C2=O)CC1 ?
a: 1.44

q: What would you report for C[C@]12CCC3=C4CCC(=O)C=C4CC[C@H]3[C@@H]1CC[C@@]2(O)CC#N ?
a: 1.39

q: What would you report for Cc1nc2n(c(=O)c1CCN1CCC(c3noc4cc(F)ccc34)CC1)CCCC2 ?
a: 0.674

---

tested on: FB; experiment: Euclidean distance of Cell Painting phenotypic profile (signed KS, 77 features) to DMSO centroid (dimensionless distance); 5 or 10 uM (library dependent); higher = stronger phenotypic change vs DMSO (phenoactivity); settings: 48 h
Each entry below lists one item and its recorded Euclidean distance value.
Answer as a number with no unit attached.

Some molecules with known Euclidean distance results, for comparison:
[
  {
    "molecule": "COc1cc([C@@H]2c3cc4c(cc3[C@@H](O[C@@H]3O[C@@H]5CO[C@@H](c6cccs6)O[C@H]5[C@H](O)[C@H]3O)[C@H]3COC(=O)[C@H]23)OCO4)cc(OC)c1O [Teniposide]",
    "quantity.kind": "Euclidean distance",
    "numeric.value": 3.23
  },
  {
    "molecule": "CCCC1O[C@@H]2C[C@H]3[C@@H]4CCC5=CC(=O)C=C[C@]5(C)[C@H]4[C@@H](O)C[C@]3(C)[C@]2(C(=O)CO)O1 (some centres undefined) [Budesonide]",
    "quantity.kind": "Euclidean distance",
    "numeric.value": 3.49
  },
  {
    "molecule": "Cn1c([N+](=O)[O-])cnc1COC(N)=O",
    "quantity.kind": "Euclidean distance",
    "numeric.value": 1.01
  }
]

q: Report Euclidean distance for CNC(=C[N+](=O)[O-])NCCSCc1csc(CN(C)C)n1 please.
a: 0.759

---

test system: HEPG2; assay: Euclidean distance of Cell Painting phenotypic profile (signed KS, 77 features) to DMSO centroid (dimensionless distance); 5 or 10 uM (library dependent); higher = stronger phenotypic change vs DMSO (phenoactivity); details: 48 h
Counter-ions that a name gives are not always drawn.
quantity.kind: Euclidean distance
Answer as a number with no unit attached.

q: Give HEPG2 Euclidean distance for COC(=O)Nc1ccc(-c2nc(N3CCOCC3)c3cnn(C4CCN(C(=O)OC)CC4)c3n2)cc1
a: 1.92

q: What would you report for CS(=O)(=O)N1CCc2c(-c3cnc(N)nc3)nc(N3CCOCC3)nc21 ?
a: 0.817

q: What would you report for CCOC(=O)c1ccc(OC(=O)CCCCCNC(=N)N)cc1 [Gabexate Mesylate] ?
a: 1.58

q: What would you report for CCN(CC)CCCC(C)Nc1ccnc2cc(Cl)ccc12 (centres undefined) [Chloroquine Phosphate] ?
a: 3.32

q: What would you report for C1CCN2C[C@@H]3C[C@@H](CN4CCCC[C@@H]34)[C@H]2C1 [(-)-Sparteine Sulfate] ?
a: 0.474

q: What would you report for O=C(CCCCCN1C(=O)c2cccc3cccc(c23)C1=O)NO ?
a: 2.92

q: What would you report for CC(C(=O)O)c1cccc(Oc2ccccc2)c1 (centres undefined) [Fenoprofen calcium hydrate] ?
a: 0.486

q: What would you report for CN(CCOc1ccc(NS(C)(=O)=O)cc1)CCc1ccc(NS(C)(=O)=O)cc1 [Dofetilide] ?
a: 0.609

q: What would you report for CC(C)OC(=O)CCC/C=C\C[C@@H]1[C@@H](/C=C/[C@@H](O)COc2cccc(C(F)(F)F)c2)[C@H](O)C[C@@H]1O ?
a: 1.07

q: What would you report for OC[C@@H](O)CN1CCN(c2ccccc2)CC1 ?
a: 0.732

q: What would you report for CO[C@H]1/C=C\C=C(/C)C(=O)NC2=CC(=O)C(NCCN(C)C)=C(C[C@@H](C)C[C@H](OC)[C@H](O)[C@@H](C)/C=C(\C)[C@@H]1OC(N)=O)C2=O ?
a: 3.56

q: What would you report for Cc1cc(-c2ccc(CC(=O)Nc3ccc(-c4cccnc4)cc3)cc2)ccn1 ?
a: 0.787

q: What would you report for COc1ccccc1O ?
a: 0.511

q: What would you report for COc1c(-c2ccc3cc(NS(C)(=O)=O)ccc3c2)cc(-n2ccc(=O)[nH]c2=O)cc1C(C)(C)C ?
a: 1.05

q: What would you report for Cc1ccc(C(=O)Nc2ccc(CN3CCN(C)CC3)c(C(F)(F)F)c2)cc1C#Cc1cnc2[nH]ncc2c1 [GZD824 Dimesylate] ?
a: 5.49

q: What would you report for Cc1cccc(C)c1NC(=O)C1CCCCN1C (centres undefined) [Mepivacaine HCl] ?
a: 0.483
